# System: Setaria viridis
# Assay Notes: Pre-emergence herbicidal effect
# Format: in vivo
# Settings: Dosage 320 (0.32 kg active substance per hectare); visual scoring after 3 weeks vs untreated controls; 100% = plants have died

- Molecule: "Cc1ccc2c(c1)[C@H](Nc1cc(C(F)F)nc(N)n1)[C@@H](C)C2"
  Unit Info: "%"
  Pre-emergence herbicidal effect SETVI: 100
- Molecule: "Cc1ccc2c(c1)C(Nc1cc(C(F)(F)F)nc(N)n1)C(C)C2 (racemic)"
  Unit Info: "%"
  Pre-emergence herbicidal effect SETVI: 100
- Molecule: "Cc1ccc2c(c1)[C@H](Nc1cc(C(F)(F)F)nc(N)n1)[C@@H](C)C2"
  Unit Info: "%"
  Pre-emergence herbicidal effect SETVI: 100
- Molecule: "Cc1ccc2c(c1)[C@H](Nc1cc(Cl)nc(N)n1)[C@@H](C)C2"
  Unit Info: "%"
  Pre-emergence herbicidal effect SETVI: 100
- Molecule: "Nc1nc(N[C@@H]2CCCc3ccccc32)cc(C(F)F)n1"
  Unit Info: "%"
  Pre-emergence herbicidal effect SETVI: 90

---

# Test system: Amaranthus retroflexus
# Assay Notes: Post-emergence herbicidal effect
# Assay type: in vivo
# Settings: Dosage 320 (0.32 kg active substance per hectare); treated in one-leaf stage; visual scoring after ca. 3 weeks vs untreated controls; 100% = plants have died

- Molecule: "Nc1nc(N[C@@H]2CCc3ccccc32)cc(C(F)F)n1"
  Post-emergence herbicidal effect AMARE: "100%"
- Molecule: "Cc1ccc2c(c1)[C@H](Nc1cc(C(F)(F)F)nc(N)n1)[C@@H](C)C2"
  Post-emergence herbicidal effect AMARE: "100%"
- Molecule: "Cc1ccc2c(c1)[C@H](Nc1cc(Cl)nc(N)n1)[C@@H](C)C2"
  Post-emergence herbicidal effect AMARE: "100%"
- Molecule: "Cc1ccc2c(c1)[C@H](Nc1cc(C(F)F)nc(N)n1)[C@@H](C)C2"
  Post-emergence herbicidal effect AMARE: "95%"
- Molecule: "Nc1nc(N[C@@H]2CCCc3ccccc32)cc(C(F)F)n1"
  Post-emergence herbicidal effect AMARE: "90%"
- Molecule: "Cc1ccc2c(c1)C(Nc1cc(C(F)(F)F)nc(N)n1)C(C)C2 (racemic)"
  Post-emergence herbicidal effect AMARE: "100%"

---

# Tested on: Pharbitis purpurea
# Assay Notes: Post-emergence herbicidal effect
# Format: in vivo
# Settings: Dosage 320 (0.32 kg active substance per hectare); treated in one-leaf stage; visual scoring after ca. 3 weeks vs untreated controls; 100% = plants have died

- Compound: "Cc1ccc2c(c1)[C@H](Nc1cc(C(F)(F)F)nc(N)n1)[C@@H](C)C2 [Example 1.27]"
  Experimental System: "Pharbitis purpurea"
  Post-emergence herbicidal effect PHBPU [%]: 85
- Compound: "Cc1ccc2c(c1)[C@H](Nc1cc(Cl)nc(N)n1)[C@@H](C)C2 [Example 1.42]"
  Experimental System: "Pharbitis purpurea"
  Post-emergence herbicidal effect PHBPU [%]: 100
- Compound: "Cc1ccc2c(c1)[C@H](Nc1cc(C(F)F)nc(N)n1)[C@@H](C)C2 [Example 1.30]"
  Experimental System: "Pharbitis purpurea"
  Post-emergence herbicidal effect PHBPU [%]: 90
- Compound: "Nc1nc(N[C@@H]2CCc3ccccc32)cc(C(F)F)n1 [Example 1.36]"
  Experimental System: "Pharbitis purpurea"
  Post-emergence herbicidal effect PHBPU [%]: 80
- Compound: "Nc1nc(N[C@@H]2CCCc3ccccc32)cc(C(F)F)n1 [Example 1.35]"
  Experimental System: "Pharbitis purpurea"
  Post-emergence herbicidal effect PHBPU [%]: 80

---

# System: Abutilon theophrasti
# Assay Notes: Post-emergence herbicidal effect
# Assay type: in vivo
# Settings: Dosage 320 (0.32 kg active substance per hectare); treated in one-leaf stage; visual scoring after ca. 3 weeks vs untreated controls; 100% = plants have died
The following compounds are listed with their measured Post-emergence herbicidal effect ABUTH values.
Endpoint Label: Post-emergence herbicidal effect ABUTH (%)

- Compound: "Cc1ccc2c(c1)[C@H](Nc1cc(C(F)F)nc(N)n1)[C@@H](C)C2"
  Experimental System: "Abutilon theophrasti"
  Unit Info: "%"
  Reported Value: 85
- Compound: "Cc1ccc2c(c1)C(Nc1cc(C(F)(F)F)nc(N)n1)C(C)C2 (racemic)"
  Experimental System: "Abutilon theophrasti"
  Unit Info: "%"
  Reported Value: 90
- Compound: "Nc1nc(N[C@@H]2CCc3ccccc32)cc(C(F)F)n1"
  Experimental System: "Abutilon theophrasti"
  Unit Info: "%"
  Reported Value: 80
- Compound: "Cc1ccc2c(c1)[C@H](Nc1cc(C(F)(F)F)nc(N)n1)[C@@H](C)C2"
  Experimental System: "Abutilon theophrasti"
  Unit Info: "%"
  Reported Value: 90
